species: Rattus norvegicus; test: Displacement of [3H]DTH from sigma 2 receptor in rat liver homogenate at 100 nM in presence of (+)-pentazocine; type: tissue-based
Exam item: assign Satisfied to entries whose Activity is below 70% and Not satisfied to entries at or above 70%. Note that a value of exactly 70% receives Not satisfied.

structure_notation: CN(CCCCc1cn(-c2ccc(F)cc2)c2ccccc12)Cc1ccccc1F
class_label: Not satisfied

structure_notation: Cc1ccc(CN(C)CCCc2cn(-c3ccc(F)cc3)c3ccccc23)cc1C
class_label: Not satisfied

Task: Take the compound CN(CCCc1cn(-c2ccc(F)cc2)c2ccccc12)Cc1cccc(Cl)c1 and say whether its Activity is less than 70%.
Result: Satisfied

---

target: Sigma non-opioid intracellular receptor 1 (Rattus norvegicus, UniProt Q9R0C9); experiment: Displacement of [3H] (+)-pentazocine from sigma 1 receptor in rat liver homogenate
Sequence (Q9R0C9 whole entry): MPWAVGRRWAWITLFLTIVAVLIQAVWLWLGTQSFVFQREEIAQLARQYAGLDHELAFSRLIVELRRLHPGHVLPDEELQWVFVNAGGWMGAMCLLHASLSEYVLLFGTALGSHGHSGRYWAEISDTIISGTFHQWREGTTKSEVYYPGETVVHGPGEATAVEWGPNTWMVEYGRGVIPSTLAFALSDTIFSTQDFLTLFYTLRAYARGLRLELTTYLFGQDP
parameter_measured: Ki (nM)
Give the value in nM but do not write nM after it.

Task: Give reported Ki value for Cc1ccc(CN(C)CCCc2cn(-c3ccc(F)cc3)c3ccccc23)cc1C
Result: 118

Task: Give reported Ki value for CN(CCCc1cn(-c2ccc(F)cc2)c2ccccc12)Cc1cccc(Cl)c1
Result: 98.9

Task: Give reported Ki value for Cc1ccc(CN(C)CCCCc2cn(-c3ccc(F)cc3)c3ccccc23)cc1C
Result: 20.8

Task: Give reported Ki value for CN(CCCCc1cn(-c2ccc(F)cc2)c2ccccc12)Cc1ccccc1
Result: 43

Task: Give reported Ki value for CN(CCCc1cn(-c2ccc(F)cc2)c2ccccc12)Cc1ccccc1
Result: 20.8

Task: Give reported Ki value for CN(CCCCc1cn(-c2ccc(F)cc2)c2ccccc12)Cc1cccc(Cl)c1
Result: 201

---

organism: Rattus norvegicus; test: Displacement of [3H]DTH from sigma 2 receptor in rat liver homogenate at 100 nM in presence of (+)-pentazocine; type: tissue-based
Recorded Activity for the following compounds
Give the value in % but do not write % after it.

Known Activity results, listed for orientation:
structure_notation: CN(CCCc1cn(-c2ccc(F)cc2)c2ccccc12)Cc1ccccc1F
unit: %
Activity: 46

structure_notation: CN(CCCCc1cn(-c2ccc(F)cc2)c2ccccc12)Cc1cccc(Cl)c1
unit: %
Activity: 89

structure_notation: CN(CCCCc1cn(-c2ccc(F)cc2)c2ccccc12)Cc1ccc(Br)cc1
unit: %
Activity: 84

structure_notation: Cc1cccc(CN(C)CCCCc2cn(-c3ccc(F)cc3)c3ccccc23)c1
unit: %
Activity: 85

Task: Give reported Activity value for CN(CCCCc1cn(-c2ccc(F)cc2)c2ccccc12)Cc1cccc(Br)c1
Result: 78

Task: Give reported Activity value for CN(CCCc1cn(-c2ccc(F)cc2)c2ccccc12)Cc1cccc(Br)c1
Result: 62

Task: Give reported Activity value for CN(CCCc1cn(-c2ccc(F)cc2)c2ccccc12)Cc1ccccc1
Result: 27

Task: Give reported Activity value for CN(CCCc1cn(-c2ccc(F)cc2)c2ccccc12)Cc1ccc(Cl)cc1
Result: 59

Task: Give reported Activity value for Cc1ccc(CN(C)CCCCc2cn(-c3ccc(F)cc3)c3ccccc23)cc1C
Result: 93

---

species: Rattus norvegicus; assay: Displacement of [3H]DTH from sigma 2 receptor in rat liver homogenate at 100 nM in presence of (+)-pentazocine; assay type: tissue-based
Hi, to clarify the labels: rule met covers Activity from 80% upward, rule not met covers anything below 80%.

structure_notation: CN(CCCCc1cn(-c2ccc(F)cc2)c2ccccc12)Cc1ccccc1Br
class_label: rule met
//
structure_notation: Cc1ccc(CN(C)CCCCc2cn(-c3ccc(F)cc3)c3ccccc23)cc1
class_label: rule met
//
structure_notation: Cc1cccc(CN(C)CCCc2cn(-c3ccc(F)cc3)c3ccccc23)c1
class_label: rule not met
//
structure_notation: CN(CCCc1cn(-c2ccc(F)cc2)c2ccccc12)Cc1ccccc1Br
class_label: rule not met
//
structure_notation: CN(CCCc1cn(-c2ccc(F)cc2)c2ccccc12)Cc1ccccc1Cl
class_label: rule not met
//
structure_notation: CN(CCCCc1cn(-c2ccc(F)cc2)c2ccccc12)Cc1ccccc1Cl
class_label: rule met

Task: # bool: Activity of CN(CCCCc1cn(-c2ccc(F)cc2)c2ccccc12)Cc1ccc(Cl)cc1 >= 80%
Result: rule met

Task: # bool: Activity of CN(CCCc1cn(-c2ccc(F)cc2)c2ccccc12)Cc1ccc(Br)cc1 >= 80%
Result: rule not met

Task: # bool: Activity of CN(CCCc1cn(-c2ccc(F)cc2)c2ccccc12)Cc1ccc(Cl)c(Cl)c1 >= 80%
Result: rule not met
